# Tested on: A549
# assayComment: In-house cancer cell viability screen (AlamarBlue)
# Format: cell-based, human
# experimentalSetup: Homo sapiens; A549 (treatment 24 h after plating); 72 h; AlamarBlue
Structures can show the parent of a compound that is named as a salt.
measurementType: IC50 (µM)
Answers are plain numbers, in µM.

{"compound": "CC(C)CCNc1ncnc2cc(N3CCN(c4ccc5c(NCCC(C)C)ncnc5c4)CC3)ccc12", "IC50 (µM)": 10.9}

query: Specify measured IC50 for Nc1ccn([C@@H]2O[C@H](CO)[C@@H](O)C2(F)F)c(=O)n1 [Gemcitabine, Gemcitabine hydrochloride, reference compound] .
result: 3.92

====

# Tested on: BB5 patient biopsy derived cell line (breast adenocarcinoma)
# assayComment: BB1 and BB5 adenoma versus carcinoma screen (confocal imaging)
# Format: cell-based
# experimentalSetup: Homo sapiens, 60 h, percent ChromaLive negative
measurementType: pIC50
Answers are plain numbers, as −log10 of the molar value.

query: Fill: pIC50 (BB5 patient biopsy derived cell line (breast adenocarcinoma)) for this molecule `CC(C)CCNc1ncnc2cc(N3CCN(c4ccc5c(NCCC(C)C)ncnc5c4)CC3)ccc12`
result: 6.30

====

# assayComment: in vivo
# experimentalSetup: female, Balb/c, mouse, ip
measurementType: MTD at 72 h (mg/kg)
Answers are plain numbers, in mg/kg.

query: Return the recorded MTD at 72 h value; entry: `CCCCNc1ncnc2cc(N3CCN(c4ccc5c(NCCCC)ncnc5c4)CC3)ccc12`
result: 7.5
